- Tested on: replicon cells
- test: Cytotoxicity MTS assay in replicon cells
- Format: cell-based
- applied.conditions: CC50, MTS assay, three days post dosing
Listed here are molecules together with their documented Cytotoxicity.
observable: Cytotoxicity

molecule=CCC(CC)CO[P@@]1(=O)OC[C@H]2O[C@@H](n3ccc(=O)[nH]c3=O)[C@](C)(N)[C@@H]2O1 result=">100 µM"
molecule="CC(C)O[P@@]1(=O)OC[C@H]2O[C@@H](n3ccc(=O)[nH]c3=O)[C@](C)(N)C2O1 (stereo partly drawn)" result=">100 µM"
molecule=C[C@@]1(N)[C@@H]2O[P@@](=O)(OCc3ccccc3)OC[C@H]2O[C@H]1n1ccc(=O)[nH]c1=O result=">100 µM"
molecule="C[C@@]1(N)C2O[P@@](=O)(OC3CCC3)OC[C@H]2O[C@H]1n1ccc(=O)[nH]c1=O (stereo partly drawn)" result=">100 µM"
molecule=CCCC(CCC)CO[P@@]1(=O)OC[C@H]2O[C@@H](n3ccc(=O)[nH]c3=O)[C@](C)(N)[C@@H]2O1 result=">100 µM"
molecule=C[C@@]1(N)[C@@H]2O[P@@](=O)(OC3CCCC3)OC[C@H]2O[C@H]1n1ccc(=O)[nH]c1=O result=">100 µM"
